Target: T1, recombinant mouse JE/MCP-1 (mouse, UniProt P10148 24-148)
T1 construct: also called rmJE/MCP-1
T1 sequence (P10148 24-148 limits assumed): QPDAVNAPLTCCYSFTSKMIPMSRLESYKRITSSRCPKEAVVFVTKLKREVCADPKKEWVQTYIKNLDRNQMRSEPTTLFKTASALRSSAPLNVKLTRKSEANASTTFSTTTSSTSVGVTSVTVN
Assay: ELISA, coated antigen
This section presents binders with their documented ELISA OD values.
Reported Property: ELISA OD (OD450)

binder="anti-MCP-1 mAb 3.11.1 (antibody, human IgG4, kappa, V domains shown) VH: QVQLQESGPGLVKPSQTLSLTCTVSGGSISSGGNYWNWIRQHPGKGLEWIGYIYYSGNTYYNPSLKSRITISIDTSKNQFSLTLSSVTAADTAVYYCARDGGDDAFDIWGQGTMVTVSS VL: DIQMTQSPSSLSASVGDRVTITCQASQDISNYLNWYQQKPGKAPKLLIYDASNLETGVPSRFSGSGSGTDFTFTINSLQPEDIATYYCQEYNNLPYSFGQGTKLEIKR" observed_measurement=0.063
binder="anti-MCP-1 mAb 1.1.1 (antibody, human IgG2, kappa, V domains shown) VH: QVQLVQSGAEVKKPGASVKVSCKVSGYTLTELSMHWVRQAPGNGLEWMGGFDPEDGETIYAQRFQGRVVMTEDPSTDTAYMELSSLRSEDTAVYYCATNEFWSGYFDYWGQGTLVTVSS VL: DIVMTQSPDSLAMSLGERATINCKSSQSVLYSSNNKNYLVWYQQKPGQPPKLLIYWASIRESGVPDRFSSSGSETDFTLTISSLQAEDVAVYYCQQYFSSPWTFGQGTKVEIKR" observed_measurement=0.045
binder="anti-MCP-1 mAb 3.10.1 (antibody, V domains shown) VH: QVQLVQSGAEVKKPGASVKVSCKVSGYTLTELSMHWVRQAPGKGLEWMGGFDPEDGETIYAQKFQGRVMMTEDTSTDTAFMDLSSLRSEDTAVYYCATDDMLTPHYLYFGMDVWGQGTTVTVSS VL: DIQMTQSPSSLSASVGDRVTITCRASQGIRNDLGWYQQKPGKAPKRLIYATSSLQSGVPSRFSGSGSGTEFTLTISSLQPEDFATYYCLQHNTYPFTFGPGTKVDIKR" observed_measurement=0.054
